assay: folding stability dG unfold (combined trypsin and chymotrypsin); higher = more stable
Measurement Kind: folding stability dG unfold (kcal/mol)

SAGGSAGGSEVKTKVTLKREDPGSASTSTVDLPKEEAEKLIKEGKEIKLPSGKKASFTKVVPESAGGSAGGS [r12_432_JUSTAS] = -0.148
SAGGSAGGSAGKKITIELPEGVKVYKLPNENDYIIVEDEKTKEKYIFKIKDGKVELIEKLSAGGSAGGSAGG [r11_1036_TrROS_Hall] = 1.47
SMSPSETETTTYTRTIPFPKSNPEQAKAEAEKEVRAELEAKGLKIDIPITIEWENDTVTVTIPISVTPPLSA [r9_889_JUSTAS] = -0.144
